# TESTED ON: MAGI2_4, Q86UL8
# Sequence (Q86UL8 772-865): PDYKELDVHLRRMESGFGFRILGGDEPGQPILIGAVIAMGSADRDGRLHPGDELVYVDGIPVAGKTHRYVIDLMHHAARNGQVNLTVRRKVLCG
# MEASUREMENT DESCRIPTION: holdup assay
# Design: key: below the threshold = too weak to quantify, mostly under pKd 3.1 to 4
# CONDITION DETAILS: plain residues with an end cap or a label only (N-terminal biotin on a linker: ado-ado)
MEASURE: pKd

AKADAQESRL [PLCB2, Q00722] | below the threshold
KSRPENGTVC [TMEM178B, H3BS89] | 3.74
GQNMTVSVVI [PRLHR, P49683] | below the threshold
KPDKQEEFYA [SDC3, O75056] | below the threshold
KKTPVSRSHL [SLC22A3, O75751] | below the threshold

Per the record, TKEIPNCTSV [SORCS3, Q9UPU3] has pKd of 4.16

Per the record, NKSEPFLTWL [WWTR1, Q9GZV5] has pKd of 3.85

Per the record, NSTHNLKDYV [CLDN20, P56880] has pKd of below the threshold

The values you see were collected from paper PMC9482650.
